TARGET: T1, human FOLR1 protein, His Tag (ACRO FO1-H52H1) (human, UniProt P15328 25-233)
T1 construct: Bought protein coated on ELISA plates; not shown: His tag
T1 sequence (P15328 25-233 limits assumed): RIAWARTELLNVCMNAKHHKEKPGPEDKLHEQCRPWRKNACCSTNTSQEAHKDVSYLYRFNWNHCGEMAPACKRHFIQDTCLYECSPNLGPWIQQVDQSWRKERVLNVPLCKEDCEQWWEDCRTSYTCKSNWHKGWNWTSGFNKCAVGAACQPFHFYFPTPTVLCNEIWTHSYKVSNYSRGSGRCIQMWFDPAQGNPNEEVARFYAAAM
PROTOCOL DESCRIPTION: ELISA, coated hFOLR1-His, supernatant 1x
ATTRIBUTE MEASURED: OD450 (OD450)
Note: unit OD450 is implicit; provide only the numeric part.

OD450 recorded for this binder, F112 (antibody, V domains shown, Tested as full-length IgG with an IgG1 Fc from HEK293, as supernatant or purified; also called clone F112; anti-FOLR1 antibody F112) VH: EVQLLESGGGVVQPGRSLRLSCAASGFTFSSYGMHWVRQAPGKGLEWVAVISYDGSNKYYADSVKGRFTISRHNSKNTLYLQMNSLRAEDTAVYYCARPRAYYGAYGSSFDYWGQGTQVTVSS VL: EIVMTQSPSSVSASVGDRVAITCRASQGISSWLAWYQQKPGKAPKLLIYAASSLQSGVPSRFSGSGSGTDFTLTISSLQPEDFATYYCQQSYSTPLTFGGGTKVDIK , is 1.56

OD450 recorded for this binder, F40 (antibody, V domains shown, Tested as full-length IgG with an IgG1 Fc from HEK293, as supernatant or purified; also called clone F40; anti-FOLR1 antibody F40) VH: EVQLLESGGGVVQPGRSLRLSCAASGFTFSSYAMHWVRQAPGKGLEWVAVISYDGSNKYYADSVKGRFIISRDNSKNTVYLQMNSLRAEDTAVYYCARPTYVFTYTGSSFDYWGQGTQVTVSS VL: DIQVTQSPSSLSASLGDTVSITCRASRGLTDSVAWYQQKPGQAPKLLIYAASTLQSGVPSRFGGSGSGSYFTLTITSLQPEDVATYYCQNYKSAPWTFGQGTKVEIK , is 0.811

OD450 recorded for this binder, F26 (antibody, V domains shown, Tested as full-length IgG with an IgG1 Fc from HEK293, as supernatant or purified; also called clone F26; anti-FOLR1 antibody F26) VH: EVQLLESGGGVVQRGRSLRLSCAASGFTFSSYGMHWVRQAPGKGLEWVAVISYDGSNKYYADSVKGRFTISRDNSKNTLYLPMNSLRAEDTAVYYCARPRAYYGAYGSSFDYWGQGTQVTVSS VL: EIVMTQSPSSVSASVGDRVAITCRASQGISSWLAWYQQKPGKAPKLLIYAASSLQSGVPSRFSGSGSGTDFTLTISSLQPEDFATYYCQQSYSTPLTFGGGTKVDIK , is 1.64

OD450 recorded for this binder, F48 (antibody, V domains shown, Tested as full-length IgG with an IgG1 Fc from HEK293, as supernatant or purified; also called clone F48; anti-FOLR1 antibody F48) VH: EVQLLESGGGVVQPGRSLRLSCAASGFTFSSYGMHWVRQAPGKGLEWVAVISYDGSNKYYADSVKGRFTISRDNSKNTLYLHMNSLRAEDTAVYYCARPRAYYGAYGSSFDYWGQGTQVTVSS VL: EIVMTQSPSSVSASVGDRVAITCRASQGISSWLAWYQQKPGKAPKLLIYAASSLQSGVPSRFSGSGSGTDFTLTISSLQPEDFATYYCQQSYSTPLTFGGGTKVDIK , is 1.56

OD450 recorded for this binder, F100 (antibody, V domains shown, Tested as full-length IgG with an IgG1 Fc from HEK293, as supernatant or purified; also called clone F100; anti-FOLR1 antibody F100) VH: EVQLLESGGGVVQPGRSLRLSCAASGFTFSSYGMHWVRQAPGKGLEWVAVISYDGSNKYYADSVKGRFTISRPNSKNTLYLQMNSLRAEDTAVYYCARPRAYYGAYGSSFDYWGQGTQVTVSS VL: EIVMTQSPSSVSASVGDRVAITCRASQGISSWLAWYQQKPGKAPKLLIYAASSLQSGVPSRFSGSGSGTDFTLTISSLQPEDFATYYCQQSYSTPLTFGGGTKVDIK , is 1.61

OD450 recorded for this binder, F131 (antibody, V domains shown, also called clone F131; F131 mAb) VH: EVQLLESGGGVVQPGRSLRLSCAASGFTFSSYGMHWVRQAPGKGLEWVAVISYDGSNKYYADSVKGRFTISRANSKNTLYLQMNSLRAEDTAVYYCARPRAYYGAYGSSFDYWGQGTQVTVSS VL: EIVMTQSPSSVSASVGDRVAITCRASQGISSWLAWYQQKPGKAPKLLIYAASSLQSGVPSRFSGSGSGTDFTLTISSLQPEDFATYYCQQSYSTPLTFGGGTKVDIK , is 1.61

OD450 recorded for this binder, F1 (antibody, V domains shown, also called clone F1; anti-FOLR1 antibody F1) VH: EVQLLESGGGVVQPGRSLRLSCAASGFTFSSYGMHWVRQAPGKGLEWVAVISYDGSNKYYADSVKGRFTISRDNSKNTLYLQMNSLRAEDTAVYYCARPRAYYGAYGSSFDYWGQGTQVTVSS VL: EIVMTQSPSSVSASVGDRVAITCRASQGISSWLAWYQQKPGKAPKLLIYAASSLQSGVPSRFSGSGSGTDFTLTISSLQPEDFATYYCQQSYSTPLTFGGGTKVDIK , is 1.66

OD450 recorded for this binder, F138 (antibody, V domains shown, Tested as full-length IgG with an IgG1 Fc, HEK293 supernatant; also called clone F138; anti-FOLR1 antibody F138) VH: EVQLLESGGGVVQPGRSLRLSCAASGFTFSSYGMHWVRQAPGKGLEWVAVISYDGSNKYYADSVKGRFTISTHNSKNTLYLQMNSLRAEDTAVYYCARPRAYYGAYGSSFDYWGQGTQVTVSS VL: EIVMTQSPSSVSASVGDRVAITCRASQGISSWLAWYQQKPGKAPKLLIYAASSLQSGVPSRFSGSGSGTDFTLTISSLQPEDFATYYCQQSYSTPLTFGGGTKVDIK , is 1.64

OD450 recorded for this binder, F8 (antibody, V domains shown, Tested as full-length IgG with an IgG1 Fc from HEK293, as supernatant or purified; also called clone F8; anti-FOLR1 antibody F8) VH: EVQLLESGGGVVQHGRSLRLSCAASGFTFSSYGMHWVRQAPGKGLEWVAVISYDGSNKYYADSVKGRFTISRDNSKNTLYLQMNSLRAEDTAVYYCARPRAYYGAYGSSFDYWGQGTQVTVSS VL: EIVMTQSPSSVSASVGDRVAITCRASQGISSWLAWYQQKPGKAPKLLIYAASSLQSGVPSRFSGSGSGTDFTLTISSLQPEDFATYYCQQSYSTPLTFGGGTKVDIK , is 1.67

OD450 recorded for this binder, F123 (antibody, V domains shown, Tested as full-length IgG with an IgG1 Fc from HEK293, as supernatant or purified; also called clone F123; anti-FOLR1 antibody F123) VH: EVQLLESGGGVVQPERSLRLSCAASGFTFSSYGMHWVRQAPGKGLEWVAVISYDGSNKYYADSVKGRFTISRANSKNTLYLQMNSLRAEDTAVYYCARPRAYYGAYGSSFDYWGQGTQVTVSS VL: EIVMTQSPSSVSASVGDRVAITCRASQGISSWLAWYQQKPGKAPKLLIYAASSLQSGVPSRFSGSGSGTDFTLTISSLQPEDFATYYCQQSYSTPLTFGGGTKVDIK , is 1.72
